Test system: MDA-MB-231 breast
Assay Info: NCI tumour cell line growth inhibition, 48 h
In this section, each of the compounds is paired with its reported TGI.

Past entries and their recorded results:
# Compound, TGI
data = [
    ("N#Cc1nc(C(=O)c2ccccc2)oc1N", "> 100 µM"),
    ("Cc1c(-c2ccnc(N)n2)c2c(n1-c1ccccc1)C(=O)c1ccccc1C2=O", "63.3 µM"),
    ("CC1CC/C(=C\\c2ccc(F)cc2)C2=C1C(c1ccc(F)cc1)NC(=S)N2 (stereo unspecified)", "> 100 µM"),
]

input: // lookup TGI for c1ccc2c(c1)[C@@H]1O[C@@H]1[C@@]13O[C@@]21[C@H]1O[C@H]1c1ccccc13
output: 33.6 µM

input: And for Cc1cc(S(=O)(=O)Nc2n[nH]c(N)n2)c(S)cc1Cl ?
output: > 10 µM

input: // query: S=C1NC2=C(CCOc3c2ccc2ccccc32)C(c2ccc(Cl)cc2)N1 (stereo unspecified)
output: 67.6 µM

input: And then Cc1nc(C)c(C(=O)NNC(=O)c2ccccc2)cc1C(=O)NNC(=O)c1ccccc1 , what is it?
output: > 100 µM

input: Now the same for Nc1cc2ccncc2c2ccccc12
output: 96.1 µM

input: Now consider CCN(CC)Cc1cc(Nc2c3ccc(Cl)cc3nc3c(C)cccc23)ccc1O and answer again.
output: 3.81 µM

input: What do you get for CN(C)CC1CCCCCCCCCCC1=O (stereo unspecified) ?
output: > 10 µM

input: Also need CC(=O)O[C@H]1CC[C@]2(C=O)[C@H]3CC[C@]4(C)[C@@H](C5=CC(=O)OC5)CC[C@]4(O)[C@@H]3CC[C@]2(O)C1 , thanks.
output: 3.14 µM

input: Follow-up item: CCOC(=O)c1sc2[n+](c1C)C(=O)/C(=C/c1ccccc1Cl)S2
output: > 27.8 µM

input: Try the compound C/C(=N/NC(=O)c1ccccc1Nc1ccccc1C(=O)N/N=C(\C)c1ccc(C)cc1)c1ccc(C)cc1
output: > 100 µM

input: And CCN1CCN(c2nc(NNC(=O)c3cccc(OC)c3)nc(N3CCN(C(c4ccccc4)c4ccccc4)CC3)n2)CC1 ?
output: 3.58 µM

input: Item: C[C@@H]1CC[C@H]2C(CN(C)CC3=C(C(F)(F)F)O[C@@H]4O[C@@]5(C)CC[C@H]6[C@H](C)CC[C@@H]3[C@@]46OO5)=C(C(F)(F)F)O[C@@H]3O[C@@]4(C)CC[C@@H]1[C@]32OO4
output: > 93.1 µM

input: Next entry: Cc1cnc2[nH]c(-c3sccc3C)cc(=O)c2c1
output: > 100 µM

input: One more compound: COc1ccc(C2CCc3c(cnc4nc(N)nc(N)c34)C2)cc1 (stereo unspecified)
output: > 100 µM

input: For COc1ccc(Nc2ccnc3cc(Cl)ccc23)cc1CN(CCCl)CCCl then?
output: 15.9 µM

input: Do the same for Cc1nc2cccc(F)c2c(=O)n1-c1nnc(C2CC2)s1 please
output: > 10 µM

input: Again, but for CC1CCCc2c(CC3CC(=O)NC(=O)C3)nc(N)nc21 (stereo unspecified)
output: > 100 µM

input: Can you check Cc1cc(C)c(N)c(CO)c1 next?
output: > 100 µM

----------
Catalogue of TGI readings, one per entry.
System: CAKI-1 renal
Assay Info: NCI tumour cell line growth inhibition, 48 h

Recorded TGI, per entry:
# Compound, TGI
measured = [
    ("S=C1NNC(=S)NN1", "0.475 µM"),
    ("CCN(CC)c1ccc(/C=C2/NC(=O)NC2=O)cc1", "> 100 µM"),
    ("Clc1ccc(C2=NNC(c3cccc(Cl)c3)C2)cc1 (stereo not drawn)", "> 100 µM"),
    ("NS(=O)(=O)c1ccc(NS(=O)(=O)c2ccc(NC(=O)N(c3ccccc3)c3ccccc3)cc2)cc1", "> 100 µM"),
    ("C/C(=N/NC(=O)c1ccccc1Nc1ccccc1C(=O)N/N=C(\\C)c1ccc(C)cc1)c1ccc(C)cc1", "> 100 µM"),
    ("CCOC(=O)CCN1C(=O)c2c(NC(=O)C(=O)O)cccc2S1(=O)=O", "> 100 µM"),
    ("CCN(CC)CCn1nc2c3c(cccc3c1=O)-c1ccccc1-2", "> 50 µM"),
    ("S=C1NC2=C(CCOc3c2ccc2ccccc32)C(c2ccc(Cl)cc2)N1 (stereo not drawn)", "72.5 µM"),
    ("COc1nc2ncc([C@@H](O)[C@H](O)CO)nc2c(=O)[nH]1", "> 100 µM"),
    ("CC(C)c1cc(C(C)C)c(B(c2ccccc2)c2ccccc2)c(C(C)C)c1Br", "> 100 µM"),
]

input: Entry CCC1C(=O)OCc2c1cc1n(c2=O)Cc2ccccc2-1 (stereo not drawn) : reported TGI = ?
output: > 100 µM

input: Try this compound next: COc1cc2cc(Oc3ccc(NC(=O)Nc4cc(C(F)(F)F)cc(C(F)(F)F)c4)cc3)c(C)nc2cc1OCCN1CCCCC1
output: 2.86 µM

input: Further, for COc1ccc2c(c1)/C(=N/OC(C)=O)c1c-2c(Nc2ccc(/C(C)=N/OC(C)=O)cc2)nc2ccccc12 ?
output: 98.2 µM

----------
TGI overview
System: DU-145 prostate
Assay Info: NCI tumour cell line growth inhibition, 48 h

# Compound, TGI
measured = [
    ("c1ccc(C2C3=C(CCCC3)Nc3nnnn32)cc1 (stereo not drawn)", "> 100 µM"),
    ("O=C(O)c1ccccc1/C=C1/Nc2ccccc2C1=O", "> 100 µM"),
    ("CC1CC2OC(=N)C1(C#N)C2(C#N)C#N (stereo not drawn)", "> 100 µM"),
]

input: Endpoint output: TGI of S=C1NNC(=S)NN1 . Value?
output: > 1 µM

input: Okay, and Cc1nc2cccc(F)c2c(=O)n1-c1nnc(C2CC2)s1 ?
output: > 10 µM

input: Another compound to check: CCOC(=O)c1sc2[n+](c1C)C(=O)/C(=C/c1ccccc1Cl)S2
output: > 35.6 µM

input: Subsequent entry: Cc1nc2ccccc2nc1N1CCCC1
output: > 100 µM

input: Cool, now COc1ccc(Cn2nc(OCc3ccccc3)c3cc([N+](=O)[O-])ccc32)cc1
output: > 100 µM

input: Next compound: COc1cc2cc(Oc3ccc(NC(=O)Nc4cc(C(F)(F)F)cc(C(F)(F)F)c4)cc3)c(C)nc2cc1OCCN1CCCCC1
output: 3.08 µM

input: Same question for COc1ccc(OC)c([N+](=O)[O-])c1-c1nc2sc(C)cn2c1/C=N/N=C(N)N please.
output: > 100 µM

input: // repeat for Fc1ccc(-c2ncn(C3CCNCC3)c2-c2ccnc(Oc3ccc(Oc4ccccc4)cc3)n2)cc1 and report
output: 7.75 µM

input: Now give it for CCN1CCN(c2nc(NNC(=O)c3cccc(OC)c3)nc(N3CCN(C(c4ccccc4)c4ccccc4)CC3)n2)CC1 too.
output: 7.29 µM

input: Also Nc1nn2cc(-c3ccccc3)[n+](CC(=O)c3ccccc3)c2s1 ?
output: > 100 µM

----------
Test system: M14 melanoma
Assay Info: NCI tumour cell line growth inhibition, 48 h; in the data active = GI50 below about 0.43 µM; inactive = the rest
I would appreciate it if you answered using one of these outcomes: yes = active, no = inactive

Solved entries (count: 3):
# Molecule, Label
measured = [
    ("CCN1CCN(c2nc(NNC(=O)c3cccc(OC)c3)nc(N3CCN(C(c4ccccc4)c4ccccc4)CC3)n2)CC1", "no"),
    ("Cn1cc(C2=C(c3cn(C)c4cc(Cl)ccc34)C(=O)NC2=O)c2ccccc21", "yes"),
    ("COc1ccc(C(=O)C(CN(C)C)c2ccccc2)cc1 (configuration not stated)", "no"),
]

input: Please let me know the test result on file for N#CCCCCCn1c2ccccc2c2c3c(c4c5ccccc5[nH]c4c21)C(=O)N(O)C3=O .
output: no

input: Next molecule up: Nc1cc2ccncc2c2ccccc12
output: no

input: Try this molecule next: COc1ccc(Nc2ccnc3cc(Cl)ccc23)cc1CN(CCCl)CCCl
output: no

input: Also need CN(C)CC1CCCCCCCCCCC1=O (configuration not stated) , thanks.
output: no

----------
# TGI per entry
System: XF 498 CNS
Assay Info: NCI tumour cell line growth inhibition, 48 h

Recorded TGI, per entry:
# Molecule, TGI
measured = [
    ("Cc1nc(=O)n2c(c1C(=O)Nc1ccc(Cl)cc1)NCCC2", "> 100 µM"),
    ("O=C1NC(=Nc2ccccc2Cl)SC1C(=O)Nc1ccc([N+](=O)[O-])cc1[N+](=O)[O-] (stereo not drawn)", "> 100 µM"),
]

# context switch: different molecule, same TGI
input: Could you share which TGI value was measured for CCCN(CCC)c1c([N+](=O)[O-])cc(C(N)=O)cc1[N+](=O)[O-] ?
output: > 100 µM
